Reported IC50 values for the following compounds.
Tested on: Histone deacetylase 2 (Homo sapiens, UniProt Q92769)
Sequence (Q92769 whole entry): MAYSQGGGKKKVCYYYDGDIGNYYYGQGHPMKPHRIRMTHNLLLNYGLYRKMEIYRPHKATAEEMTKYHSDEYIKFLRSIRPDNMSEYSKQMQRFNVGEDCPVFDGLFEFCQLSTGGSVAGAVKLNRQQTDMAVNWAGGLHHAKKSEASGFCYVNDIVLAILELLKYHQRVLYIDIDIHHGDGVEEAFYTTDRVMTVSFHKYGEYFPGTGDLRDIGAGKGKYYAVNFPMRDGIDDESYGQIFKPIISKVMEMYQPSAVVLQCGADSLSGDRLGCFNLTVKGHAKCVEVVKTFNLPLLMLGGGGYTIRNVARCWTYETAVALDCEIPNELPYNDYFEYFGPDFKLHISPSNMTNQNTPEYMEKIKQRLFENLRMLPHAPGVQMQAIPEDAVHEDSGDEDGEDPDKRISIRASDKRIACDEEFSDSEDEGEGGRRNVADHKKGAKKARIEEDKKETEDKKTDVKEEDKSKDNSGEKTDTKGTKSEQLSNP
Entry rule: numbers only, all in nM.

Enquiry: # IC50 lookup, item Cc1cc(C)c(CNC(=O)c2cc(C)n(-c3cccc(NC(=O)CCCCCCC(=O)NO)c3)c2C)c(=O)[nH]1
Return: 1330

Enquiry: Entry under review: Cc1cc(C)c(CNC(=O)c2cnn(-c3cccc(NC(=O)CCCCCCC(=O)NO)c3)c2C)c(=O)[nH]1 . Reported IC50?
Return: 2360

* * *

Tested on: Histone deacetylase 5 (Homo sapiens, UniProt Q9UQL6)
Sequence (Q9UQL6 whole entry): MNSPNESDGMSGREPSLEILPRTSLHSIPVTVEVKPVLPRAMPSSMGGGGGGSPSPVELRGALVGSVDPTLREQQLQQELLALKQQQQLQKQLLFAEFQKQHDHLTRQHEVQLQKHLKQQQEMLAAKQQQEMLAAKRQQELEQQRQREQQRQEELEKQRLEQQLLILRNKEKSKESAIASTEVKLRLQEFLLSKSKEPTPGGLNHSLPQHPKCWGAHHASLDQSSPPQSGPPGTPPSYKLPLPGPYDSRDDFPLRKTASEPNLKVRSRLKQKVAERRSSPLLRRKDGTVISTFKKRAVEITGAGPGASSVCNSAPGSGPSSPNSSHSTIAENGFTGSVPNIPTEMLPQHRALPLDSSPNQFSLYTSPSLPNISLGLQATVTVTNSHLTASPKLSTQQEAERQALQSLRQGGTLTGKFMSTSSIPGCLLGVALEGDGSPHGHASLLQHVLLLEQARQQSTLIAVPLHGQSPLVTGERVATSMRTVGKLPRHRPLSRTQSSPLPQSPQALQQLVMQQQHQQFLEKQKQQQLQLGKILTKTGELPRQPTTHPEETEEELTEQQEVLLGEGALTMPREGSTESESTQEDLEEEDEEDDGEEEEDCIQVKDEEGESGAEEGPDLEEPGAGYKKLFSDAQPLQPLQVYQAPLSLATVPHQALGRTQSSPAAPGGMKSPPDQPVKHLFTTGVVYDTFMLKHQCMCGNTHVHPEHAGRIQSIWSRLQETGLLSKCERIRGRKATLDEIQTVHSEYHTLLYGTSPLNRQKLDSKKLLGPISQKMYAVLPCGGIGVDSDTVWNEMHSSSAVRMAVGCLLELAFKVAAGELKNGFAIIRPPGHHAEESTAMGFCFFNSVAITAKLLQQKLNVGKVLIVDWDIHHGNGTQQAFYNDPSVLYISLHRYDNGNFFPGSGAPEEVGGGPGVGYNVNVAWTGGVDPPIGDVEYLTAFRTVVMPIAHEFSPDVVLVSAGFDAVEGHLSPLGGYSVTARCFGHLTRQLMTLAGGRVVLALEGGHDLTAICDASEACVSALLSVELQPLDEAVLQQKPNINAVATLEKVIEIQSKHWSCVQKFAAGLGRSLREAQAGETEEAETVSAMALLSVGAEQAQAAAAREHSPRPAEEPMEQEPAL
Experimental protocol: Inhibition of human recombinant HDAC5 using AMC-K(TFA)GL as substrate by fluorescence based assay
Recorded pIC50 values for a group of molecules are listed next.
// pIC50 is dimensionless: -log10 of concentration (M)

Enquiry: Which value of pIC50 has been reported for Cc1cc(C)c(CNC(=O)c2cc(C)n(-c3cccc(NC(=O)CCCCCCC(=O)NO)c3)c2C)c(=O)[nH]1 in the records?
Return: 4.78

Enquiry: Using the record for Cc1cc(C)c(CNC(=O)c2cnn(-c3cccc(NC(=O)CCCCCCC(=O)NO)c3)c2C)c(=O)[nH]1 , report its pIC50.
Return: 4.00

* * *

Tested on: Histone deacetylase 1 (Homo sapiens, UniProt Q13547)
Sequence (Q13547 whole entry): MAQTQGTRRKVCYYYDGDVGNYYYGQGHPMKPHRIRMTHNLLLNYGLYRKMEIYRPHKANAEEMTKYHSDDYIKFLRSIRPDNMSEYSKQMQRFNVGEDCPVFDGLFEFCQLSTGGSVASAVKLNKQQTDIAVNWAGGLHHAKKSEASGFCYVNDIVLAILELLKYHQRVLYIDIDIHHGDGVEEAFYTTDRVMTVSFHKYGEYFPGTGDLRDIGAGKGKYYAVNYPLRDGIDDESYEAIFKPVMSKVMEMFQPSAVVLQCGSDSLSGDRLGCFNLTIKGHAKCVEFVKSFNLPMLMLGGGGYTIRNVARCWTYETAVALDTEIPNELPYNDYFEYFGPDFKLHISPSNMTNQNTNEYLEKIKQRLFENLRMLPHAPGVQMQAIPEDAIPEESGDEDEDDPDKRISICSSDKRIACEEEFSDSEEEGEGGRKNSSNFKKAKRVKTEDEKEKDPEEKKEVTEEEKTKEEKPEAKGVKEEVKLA
Experimental protocol: Inhibition of human recombinant HDAC1 using AMC-K(Ac)GL as substrate by fluorescence based assay
compounds and their reported IC50
Numeric only. Scale: nM

Cc1cc(C)c(CNC(=O)c2cnn(-c3cccc(NC(=O)CCCCCCC(=O)NO)c3)c2C)c(=O)[nH]1 | 830

Enquiry: If you can, please state the reported IC50 value of Cc1cc(C)c(CNC(=O)c2cc(C)n(-c3cccc(NC(=O)CCCCCCC(=O)NO)c3)c2C)c(=O)[nH]1 .
Return: 430

* * *

Tested on: Histone deacetylase 8 (Homo sapiens, UniProt Q9BY41)
Sequence (Q9BY41 whole entry): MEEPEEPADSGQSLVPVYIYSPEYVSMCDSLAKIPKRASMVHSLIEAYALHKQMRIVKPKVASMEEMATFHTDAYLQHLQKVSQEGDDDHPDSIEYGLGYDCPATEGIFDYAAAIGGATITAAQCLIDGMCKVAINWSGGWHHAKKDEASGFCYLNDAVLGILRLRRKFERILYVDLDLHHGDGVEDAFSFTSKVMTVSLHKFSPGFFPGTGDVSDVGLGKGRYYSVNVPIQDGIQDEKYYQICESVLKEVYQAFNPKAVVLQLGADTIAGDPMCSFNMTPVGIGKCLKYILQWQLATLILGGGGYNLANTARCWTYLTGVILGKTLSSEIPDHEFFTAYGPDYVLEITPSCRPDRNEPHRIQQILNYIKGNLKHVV
Experimental protocol: Inhibition of human recombinant HDAC8 using AMC-K(Ac)GL as substrate by fluorescence based assay
Attribute measured: pIC50
On this scale, pIC50 is minus log10 of a concentration expressed in M (mol/L).

Cc1cc(C)c(CNC(=O)c2cc(C)n(-c3cccc(NC(=O)CCCCCCC(=O)NO)c3)c2C)c(=O)[nH]1 | 6.96

Read the next record carefully.
Enquiry: Missing value: pIC50, Histone deacetylase 8 (Homo sapiens, UniProt Q9BY41), entry Cc1cc(C)c(CNC(=O)c2cnn(-c3cccc(NC(=O)CCCCCCC(=O)NO)c3)c2C)c(=O)[nH]1 . Fill in?
Return: 5.68

* * *

Tested on: Histone deacetylase 3 (Homo sapiens, UniProt O15379)
Sequence (O15379 whole entry): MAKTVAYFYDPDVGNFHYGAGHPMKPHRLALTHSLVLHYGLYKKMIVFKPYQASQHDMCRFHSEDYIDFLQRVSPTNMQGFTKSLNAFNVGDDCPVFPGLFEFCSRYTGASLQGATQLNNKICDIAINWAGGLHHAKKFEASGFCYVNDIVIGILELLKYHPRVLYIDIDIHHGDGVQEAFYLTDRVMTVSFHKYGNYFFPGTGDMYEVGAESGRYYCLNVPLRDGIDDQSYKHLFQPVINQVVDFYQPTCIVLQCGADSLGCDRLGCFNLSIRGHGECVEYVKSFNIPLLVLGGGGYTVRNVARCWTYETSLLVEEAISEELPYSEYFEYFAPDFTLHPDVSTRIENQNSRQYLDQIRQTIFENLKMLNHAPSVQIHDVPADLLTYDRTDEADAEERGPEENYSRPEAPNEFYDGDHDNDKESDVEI
Experimental protocol: Inhibition of human recombinant HDAC3 using AMC-K(Ac)GL as substrate by fluorescence based assay
Each entry below carries its recorded IC50.
Give your result in nM as a bare value.

Cc1cc(C)c(CNC(=O)c2cnn(-c3cccc(NC(=O)CCCCCCC(=O)NO)c3)c2C)c(=O)[nH]1 | 1480

For the next question, use this compound.
Enquiry: Could you share which IC50 value was measured for Cc1cc(C)c(CNC(=O)c2cc(C)n(-c3cccc(NC(=O)CCCCCCC(=O)NO)c3)c2C)c(=O)[nH]1 ?
Return: 450

* * *

Tested on: Protein deacetylase HDAC6 (Homo sapiens)
Sequence (Q9UBN7 whole entry): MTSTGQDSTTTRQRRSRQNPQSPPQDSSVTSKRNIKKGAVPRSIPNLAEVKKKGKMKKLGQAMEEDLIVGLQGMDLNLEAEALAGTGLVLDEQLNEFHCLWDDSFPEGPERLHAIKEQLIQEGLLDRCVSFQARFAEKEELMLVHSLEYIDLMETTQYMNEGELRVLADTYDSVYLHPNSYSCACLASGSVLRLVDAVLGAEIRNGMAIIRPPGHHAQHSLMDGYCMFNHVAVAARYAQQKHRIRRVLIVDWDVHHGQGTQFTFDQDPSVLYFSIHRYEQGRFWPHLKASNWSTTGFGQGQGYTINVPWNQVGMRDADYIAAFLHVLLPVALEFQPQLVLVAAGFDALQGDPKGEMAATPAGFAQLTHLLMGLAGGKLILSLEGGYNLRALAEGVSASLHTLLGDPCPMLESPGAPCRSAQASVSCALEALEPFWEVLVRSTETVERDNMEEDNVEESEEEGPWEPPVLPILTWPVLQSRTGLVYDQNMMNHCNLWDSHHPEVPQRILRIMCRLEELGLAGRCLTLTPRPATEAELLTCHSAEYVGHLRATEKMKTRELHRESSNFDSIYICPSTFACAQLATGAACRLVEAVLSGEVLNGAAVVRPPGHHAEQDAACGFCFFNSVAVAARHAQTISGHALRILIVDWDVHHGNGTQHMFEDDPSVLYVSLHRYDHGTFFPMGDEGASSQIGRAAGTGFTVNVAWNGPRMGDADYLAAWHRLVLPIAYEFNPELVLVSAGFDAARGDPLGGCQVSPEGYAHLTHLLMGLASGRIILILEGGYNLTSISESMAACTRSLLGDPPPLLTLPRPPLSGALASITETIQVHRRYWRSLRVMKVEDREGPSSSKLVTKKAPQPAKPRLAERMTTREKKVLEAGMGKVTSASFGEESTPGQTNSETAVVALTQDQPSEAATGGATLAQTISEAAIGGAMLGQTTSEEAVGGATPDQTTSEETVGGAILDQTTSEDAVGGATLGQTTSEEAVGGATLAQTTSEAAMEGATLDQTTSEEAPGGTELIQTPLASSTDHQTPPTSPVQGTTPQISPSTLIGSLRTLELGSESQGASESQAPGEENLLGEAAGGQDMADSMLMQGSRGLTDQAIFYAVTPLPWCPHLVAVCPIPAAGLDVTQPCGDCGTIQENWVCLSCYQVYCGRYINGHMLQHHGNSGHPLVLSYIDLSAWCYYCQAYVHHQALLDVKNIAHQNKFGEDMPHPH
Experimental protocol: Inhibition of human recombinant HDAC6 using AMC-K(Ac)GL as substrate by fluorescence based assay
Attribute measured: IC50 (nM)
Write it as a number; the unit nM goes unstated.

Cc1cc(C)c(CNC(=O)c2cnn(-c3cccc(NC(=O)CCCCCCC(=O)NO)c3)c2C)c(=O)[nH]1 | 10

// below: IC50 requested for another molecule
Enquiry: Kindly state the measured IC50 obtained for Cc1cc(C)c(CNC(=O)c2cc(C)n(-c3cccc(NC(=O)CCCCCCC(=O)NO)c3)c2C)c(=O)[nH]1 with Protein deacetylase HDAC6 (Homo sapiens).
Return: 5

* * *

Experimental protocol: Cytotoxicity against human RH4 cells assessed as reduction in cell viability incubated for 72 hrs by CellTiter-Glo Luminescent cell viability assay
Assay type: functional, cell-based
Condition notes: Rh4, 72 h
Attribute measured: pIC50
In simple prose, pIC50 is minus the logarithm base ten of a concentration in moles per litre.

Enquiry: Any idea what pIC50 was measured for Cc1cc(C)c(CNC(=O)c2cc(C)n(-c3cccc(NC(=O)CCCCCCC(=O)NO)c3)c2C)c(=O)[nH]1 ?
Return: 4.89
